assay: Inhibition of recombinant perforin (unknown origin) mediated lysis of human Jurkat cells pre-incubated for 30 mins with perforin followed by incubation with Jurkat cells at 37 degC for 4 hrs assessed as 51Cr release by gamma counting analysis
Catalogue of IC50 values

Reference set (2 entries):
The compound `CN1CCN(C(=O)c2ccc(-c3ccc(-c4ccc5c(c4)COC5=O)s3)cc2)CC1` showed IC50 equal to > 20 µM

The compound `O=C1OCc2cc(-c3ccc(-c4ccccc4)s3)ccc21` showed IC50 equal to > 20 µM

Now look at this one.
The compound CC(O)CNC(=O)c1ccc(-c2ccc(-c3ccc4c(c3)COC4=O)s2)cc1O (stereo not drawn) showed IC50 equal to > 20 µM

The reported measurements were obtained from BindingDB's records for doi:10.1016/j.bmcl.2015.12.003.
